EXPERIMENTAL TARGET: 72 kDa type IV collagenase (Homo sapiens, UniProt P08253)
Sequence (P08253 whole entry, the tested form may be a part): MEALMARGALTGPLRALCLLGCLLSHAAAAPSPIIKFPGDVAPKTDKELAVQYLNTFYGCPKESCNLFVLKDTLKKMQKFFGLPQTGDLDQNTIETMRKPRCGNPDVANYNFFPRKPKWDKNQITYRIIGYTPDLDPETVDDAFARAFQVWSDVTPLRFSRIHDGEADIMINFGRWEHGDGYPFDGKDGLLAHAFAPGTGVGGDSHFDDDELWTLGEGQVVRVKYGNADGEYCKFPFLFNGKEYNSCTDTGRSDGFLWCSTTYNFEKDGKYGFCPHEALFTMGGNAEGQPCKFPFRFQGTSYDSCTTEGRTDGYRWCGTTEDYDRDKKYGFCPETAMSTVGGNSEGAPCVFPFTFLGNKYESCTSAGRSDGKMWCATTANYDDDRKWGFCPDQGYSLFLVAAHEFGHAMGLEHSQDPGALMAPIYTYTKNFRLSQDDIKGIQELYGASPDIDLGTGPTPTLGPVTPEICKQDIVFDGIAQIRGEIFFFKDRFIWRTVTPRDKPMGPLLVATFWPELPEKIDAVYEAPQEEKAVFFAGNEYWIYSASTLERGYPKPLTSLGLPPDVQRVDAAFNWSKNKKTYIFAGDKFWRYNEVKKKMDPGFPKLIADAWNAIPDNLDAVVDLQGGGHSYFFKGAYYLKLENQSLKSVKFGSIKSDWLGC
MEASUREMENT NOTES: Inhibition of recombinant human MMP2 (110 to 452 residues) using Mca-Pro-Leu-Gly-Leu-Dpa-Ala-Arg-NH2 expressed in yeast expression system as substrate incubated for 15 mins followed by substrate addition and measured after 2 to 4 hrs by fluorescence based assay
PARAMETER: IC50 (µM)

mol=O=c1[nH]c2ccccc2c2cc(-c3ccccc3)cc(Nc3ccccc3)c12 experimental_target="72 kDa type IV collagenase (Homo sapiens, UniProt P08253)" parameter=IC50 comparison_symbol== val=13
mol=CCCCNc1cc(-c2ccccc2)cc2c1c(=O)[nH]c1ccccc12 experimental_target="72 kDa type IV collagenase (Homo sapiens, UniProt P08253)" parameter=IC50 comparison_symbol== val=56
mol=Cc1cc(C)cc(Nc2cc(-c3ccco3)cc3c2c(=O)[nH]c2ccccc23)c1 experimental_target="72 kDa type IV collagenase (Homo sapiens, UniProt P08253)" parameter=IC50 comparison_symbol== val=21.6
mol=COc1ccc(Nc2cc(-c3ccco3)cc3c2c(=O)[nH]c2ccccc23)cc1 experimental_target="72 kDa type IV collagenase (Homo sapiens, UniProt P08253)" parameter=IC50 comparison_symbol== val=9
mol=Cn1c(=O)c2c(Nc3ccccc3)cc(-c3ccccc3)cc2c2ccccc21 experimental_target="72 kDa type IV collagenase (Homo sapiens, UniProt P08253)" parameter=IC50 comparison_symbol=> val=100
mol=O=c1[nH]c2ccccc2c2cc(-c3ccco3)cc(Nc3ccc(F)cc3)c12 experimental_target="72 kDa type IV collagenase (Homo sapiens, UniProt P08253)" parameter=IC50 comparison_symbol== val=45.4
mol=Nc1cc(-c2cccs2)cc2c1c(=O)[nH]c1ccccc12 experimental_target="72 kDa type IV collagenase (Homo sapiens, UniProt P08253)" parameter=IC50 comparison_symbol=> val=100
mol=CN(C)c1ccc(Nc2cc(-c3ccccc3)cc3c2c(=O)[nH]c2ccccc23)cc1 experimental_target="72 kDa type IV collagenase (Homo sapiens, UniProt P08253)" parameter=IC50 comparison_symbol== val=73
mol=O=c1[nH]c2ccccc2c2cc(-c3cccs3)cc(Nc3ccc(F)cc3)c12 experimental_target="72 kDa type IV collagenase (Homo sapiens, UniProt P08253)" parameter=IC50 comparison_symbol== val=6.8
mol=CCCCNc1cc(-c2cccs2)cc2c1c(=O)[nH]c1ccccc12 experimental_target="72 kDa type IV collagenase (Homo sapiens, UniProt P08253)" parameter=IC50 comparison_symbol== val=38
